Origin of measurements: paper PMC4336329

Known hERG current change (%, negative = inhibition) at 1uM of a selection of compounds
Biological target: human ether-à-go-go-related gene (hERG) potassium channel (human, UniProt Q12809)
Sequence (Q12809 whole entry, looked up): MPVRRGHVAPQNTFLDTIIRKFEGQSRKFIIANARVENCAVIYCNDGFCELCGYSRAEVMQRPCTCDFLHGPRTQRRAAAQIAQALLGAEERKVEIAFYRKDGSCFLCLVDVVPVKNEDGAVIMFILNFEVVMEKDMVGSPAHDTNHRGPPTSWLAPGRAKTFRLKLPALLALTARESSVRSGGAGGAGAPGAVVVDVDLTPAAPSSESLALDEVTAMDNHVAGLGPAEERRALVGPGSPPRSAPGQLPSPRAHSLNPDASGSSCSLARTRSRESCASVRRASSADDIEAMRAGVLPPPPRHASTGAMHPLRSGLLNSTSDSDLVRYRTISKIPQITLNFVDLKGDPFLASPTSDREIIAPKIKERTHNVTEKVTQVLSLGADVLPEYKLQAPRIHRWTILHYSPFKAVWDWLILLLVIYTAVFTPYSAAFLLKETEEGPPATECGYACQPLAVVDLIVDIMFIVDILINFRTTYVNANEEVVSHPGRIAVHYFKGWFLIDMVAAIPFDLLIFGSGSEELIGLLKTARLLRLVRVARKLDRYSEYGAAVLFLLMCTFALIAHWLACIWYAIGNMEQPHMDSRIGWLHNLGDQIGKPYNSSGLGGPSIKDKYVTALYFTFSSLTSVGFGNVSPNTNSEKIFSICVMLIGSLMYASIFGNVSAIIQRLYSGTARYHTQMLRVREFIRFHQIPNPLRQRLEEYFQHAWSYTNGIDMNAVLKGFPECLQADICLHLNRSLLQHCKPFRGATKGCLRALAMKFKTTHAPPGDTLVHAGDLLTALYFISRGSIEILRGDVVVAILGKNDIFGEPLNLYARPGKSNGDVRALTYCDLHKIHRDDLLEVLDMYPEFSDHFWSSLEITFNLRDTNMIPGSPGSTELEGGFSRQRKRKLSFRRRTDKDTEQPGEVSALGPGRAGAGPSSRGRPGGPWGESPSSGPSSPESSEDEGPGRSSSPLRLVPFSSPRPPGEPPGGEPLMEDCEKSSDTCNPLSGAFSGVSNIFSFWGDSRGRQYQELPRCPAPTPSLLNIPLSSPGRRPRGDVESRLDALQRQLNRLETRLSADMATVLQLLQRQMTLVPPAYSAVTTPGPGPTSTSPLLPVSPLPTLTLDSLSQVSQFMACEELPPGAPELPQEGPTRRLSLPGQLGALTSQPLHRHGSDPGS
Experiment: primary screen, population patch clamp on CHO cells stably expressing hERG; higher = less effect of the substance
Out of some 310,000 compounds screened, about 2,200 (0.71%) showed an effect of 50% or more. Effects have a minus sign here. The full list was thinned out, with strong results kept by preference.
Reported property: hERG current change (%, negative = inhibition) at 1uM (%)

| Compound | Observed result |
| --- | --- |
| CCOC(=O)C1(CC2CC2)CCN(Cc2ccc(OC)cc2F)CC1 | -73.3 |
| CCCOC(=O)c1cc(-c2ccc(C=O)o2)ccc1Cl | 3.2 |
| COCC(=O)N1CCC(n2nccc2NC(=O)c2ccccc2OC)CC1 | 14.1 |
| Cc1ccc(S(=O)(=O)CC(O)COc2ccc(F)cc2Cl)c(C)c1 (stereo not drawn) | 7.06 |
| CCOC(=O)C1(CC2CCCCO2)CCN(Cc2cn[nH]c2-c2cccc(F)c2)CC1 (stereo not drawn) | -27.2 |
| COC(=O)c1cc(Br)c(=O)n(-c2ccc(F)cc2)c1 | -70.1 |
| COC(=O)c1ccc(CSc2nncn2C)cc1 | -4.1 |
| CCOC(=O)N1CCN(Cc2cn[nH]c2-c2ccc(-c3ccccc3)cc2)CC1 | 7.03 |
| Cc1ccccc1OCC(=O)Nc1ccccc1C(=O)N1CCCCC1 | -4.24 |

* * *

Molecular target: human ether-à-go-go-related gene (hERG) potassium channel (human, UniProt Q12809)
Test: primary screen, population patch clamp on CHO cells stably expressing hERG; higher = less effect of the substance
In all, about 310,000 compounds went through this assay and about 2,200 (0.71%) showed an effect of 50% or more. Effects have a minus sign here. Many of the other results were omitted from the sample, so strong results are more common in it than they were.
Reported property: hERG current change (%, negative = inhibition) at 1uM (%)

| Molecule | Measurement target | Observed result |
| --- | --- | --- |
| CC1(c2ccc([N+](=O)[O-])cc2)Nc2ccccc2S1 (centres unmarked) | human ether-à-go-go-related gene (hERG) potassium channel (human, UniProt Q12809) | 10.9 |
| O=C(COC(=O)c1ccc2ccccc2n1)c1ccc(F)cc1 | human ether-à-go-go-related gene (hERG) potassium channel (human, UniProt Q12809) | -5.55 |
| CC(CN1CCC(n2nccc2NC(=O)C2CCCC2)CC1)c1ccccc1 (centres unmarked) | human ether-à-go-go-related gene (hERG) potassium channel (human, UniProt Q12809) | 2.95 |
| Cc1cccc(CSc2ccc3nnc(-c4cccs4)n3n2)c1 | human ether-à-go-go-related gene (hERG) potassium channel (human, UniProt Q12809) | 5.73 |
| CC(C)=CCCC(C)CN1CCC(n2nccc2NC(=O)c2cccnc2)CC1 (centres unmarked) | human ether-à-go-go-related gene (hERG) potassium channel (human, UniProt Q12809) | -5.79 |
| CCCCCCN1C2=NCCCN2c2ccccc21.Cl | human ether-à-go-go-related gene (hERG) potassium channel (human, UniProt Q12809) | -73.7 |
| COc1ccc(NC(=O)N2CCN(c3ccc([N+](=O)[O-])cc3)CC2)cc1 | human ether-à-go-go-related gene (hERG) potassium channel (human, UniProt Q12809) | -14.2 |
| O=[N+]([O-])c1ccc(N2CCN(C(=S)Nc3ccc(F)cc3)CC2)cc1 | human ether-à-go-go-related gene (hERG) potassium channel (human, UniProt Q12809) | -23.8 |
| Cc1cccc(CSc2ccc3nnc(-c4ccccn4)n3n2)c1 | human ether-à-go-go-related gene (hERG) potassium channel (human, UniProt Q12809) | -58.9 |
| COc1ccc(CCNCC(O)COc2c(C)cccc2C)cc1OC.O=C(O)C(=O)O (centres unmarked) | human ether-à-go-go-related gene (hERG) potassium channel (human, UniProt Q12809) | 7.9 |
| CCCN1C2=NCCCN2c2ccccc21.Cl | human ether-à-go-go-related gene (hERG) potassium channel (human, UniProt Q12809) | 7.07 |
| CC(C)=CCCC(C)CN1CCC(n2nccc2NC(=O)C2CCCC2)CC1 (centres unmarked) | human ether-à-go-go-related gene (hERG) potassium channel (human, UniProt Q12809) | -50.3 |
| COc1ccc(NC(=S)N2CCN(c3ccc([N+](=O)[O-])cc3)CC2)cc1OC | human ether-à-go-go-related gene (hERG) potassium channel (human, UniProt Q12809) | -82.2 |
| CCc1ccc(CN2CCC(n3nccc3NC(=O)c3ccccc3)CC2)o1 | human ether-à-go-go-related gene (hERG) potassium channel (human, UniProt Q12809) | -6.11 |

* * *

Known hERG current change (%, negative = inhibition) at 1uM of a selection of compounds
Molecular target: human ether-à-go-go-related gene (hERG) potassium channel (human)
Assay: primary screen, population patch clamp on CHO cells stably expressing hERG; higher = less effect of the substance
From the text: Briefly, Chinese hamster ovary (CHO) cells stably expressing the hERG channel were dislodged from tissue culture flasks and dispensed into PPC plates. […] Small molecule effects on hERG current density were quantified by […].
The whole screen tested about 310,000 compounds, of which about 2,200 (0.71%) showed an effect of 50% or more. The effect is printed as a negative number. The full list was thinned out, with strong results kept by preference.
Reported property: hERG current change (%, negative = inhibition) at 1uM (%)

| Smiles entry | Observed result |
| --- | --- |
| N#Cc1ncc(-c2ccc3c(c2)OCCOCCOCCOCCO3)nc1C#N | -63.6 |
| N#Cc1cncc(-c2ccc3c(c2)OCCOCCOCCOCCOCCO3)n1 | -95.2 |
| Cl.Nc1nc(-c2ccc3c(c2)OCCO3)cs1 | 14.3 |

* * *

Molecular target: human ether-à-go-go-related gene (hERG) potassium channel (human)
Assay: primary screen, population patch clamp on CHO cells stably expressing hERG; higher = less effect of the substance
Screen size: about 310,000 compounds; about 2,200 (0.71%) showed an effect of 50% or more. The effect is printed as a negative number. What follows is part of a selection rich in strong results, with near analogues and random picks from the rest.
Known hERG current change (%, negative = inhibition) at 1uM of a selection of compounds
Reported property: hERG current change (%, negative = inhibition) at 1uM (%)

| Compound | Observed result |
| --- | --- |
| Nc1cc(=O)[nH]c(SCC(=O)Nc2ccc(Cl)c(Cl)c2)n1 | 1.55 |
| O=C(OCCN1C(=O)c2ccccc2C1=O)c1cccs1 | 11.9 |
| Cc1ccc2cc(CCNC(=O)c3ccc(S(=O)(=O)N4CCOCC4)cc3)c(=O)[nH]c2c1C | 11.8 |
| C=CCNC(=S)N1CCN(CCN=Cc2c(C)[nH]n(-c3ccc([N+](=O)[O-])cc3)c2=O)CC1 | -27.3 |
| CCN(CC)C(=O)CC(c1ccc2c(c1)OCO2)c1c(O)cc(OC)cc1OC (stereo not shown) | 5.47 |
| COc1ccc(NC(=O)CN2CCC(C)CC2)cc1 | -0.0667 |
| CCN(CC)CCC(c1ccc2c(c1)OCO2)c1c(O)cc(OC)cc1OC (stereo not shown) | -73.4 |
| CN1C(=O)/C(=N/OC(=O)c2ccccc2)c2ccccc21 | -4.57 |
| CCN(CC)S(=O)(=O)c1ccc(N2CCOCC2)c(NS(=O)(=O)c2cc(C(C)(C)C)ccc2C)c1 | 6.68 |
| CN1C2C=C(N(C(=O)c3ccc(Cl)cc3)c3ccccc3)CC1CC2.Cl (stereo not shown) | -69.8 |
| Cc1[nH]n(-c2ccc([N+](=O)[O-])cc2)c(=O)c1C=NCCN1CCN(C(=O)c2cccc(F)c2)CC1 | -78 |
| COc1cc(O)c(C(CCN2CCCC2)c2ccc3c(c2)OCO3)c(OC)c1 (stereo not shown) | -41.5 |
| N#CCCn1cc(C(=O)Nc2ccc(F)cc2)c(-c2ccc([N+](=O)[O-])cc2)n1 | 6.48 |
| Cc1cccc(C(=O)NCCCn2ccnc2)c1C | 4.84 |
| C/C(N)=C(\C#N)C(=O)NCc1ccccn1 | 10.9 |
| CCCCc1ccc(NC(=S)N2CCCC(C)C2)cc1 (stereo not shown) | 10.2 |
| COc1cc(O)c(C(CC(=O)N2CCCC(C)C2)c2ccc3c(c2)OCO3)c(OC)c1 (stereo not shown) | 14.5 |
| O=c1c(C=NCCN2CCNCC2)c(-c2ccccc2)[nH]n1-c1ccc([N+](=O)[O-])cc1 | -31 |
| NC(=O)COC(=O)c1ccc2c(c1)C(=O)N(Cc1ccco1)C2=O | 9.91 |
| COc1cc(O)c(C(CCN2CCCCC2)c2ccc3c(c2)OCO3)c(OC)c1 (stereo not shown) | -72.1 |
| COc1cc(O)c(C(CCN2CCN(c3ccccc3)CC2)c2ccc3c(c2)OCO3)c(OC)c1 (stereo not shown) | 5.8 |
| CCN(CC)c1ccc(NC(=O)CN2CCN(CC(=O)Nc3ccccc3OC)CC2)cc1 | -0.407 |
| COc1ccc(-c2[nH]n(-c3ccc([N+](=O)[O-])cc3)c(=O)c2C=NCCN2CCNCC2)cc1 | 2.86 |
| CCN(CC)c1ccc(NC(=O)CN2CCN(CC(=O)Nc3ccc(OC)cc3)CC2)cc1 | -59.5 |
| CN1C2C=C(N(CCc3ccccc3)C(=O)c3ccc(Cl)cc3)CC1CC2.Cl (stereo not shown) | -19.7 |
| COc1ccccc1NC(=O)CN1CCN(CC(=O)Nc2ccc(OC)c(OC)c2)CC1 | 12 |
| CN1C2CCC1CC(OC(=O)c1ccc(Cl)cc1)C2.Cl (stereo not shown) | -9.75 |
| CN1C2CCC1CC(N(CCc1ccccc1)C(=O)c1ccc(Cl)cc1)C2.Cl (stereo not shown) | -78.8 |
